SYSTEM TESTED: T1, mouse MET ECD (mouse, UniProt P16056 25-931)
T1 construct: range 1-931; recombinant ECD made by the applicants; the stated range begins at residue 1; also called mMET; mMET ECD
T1 sequence (P16056 25-931 limits assumed, form in doubt): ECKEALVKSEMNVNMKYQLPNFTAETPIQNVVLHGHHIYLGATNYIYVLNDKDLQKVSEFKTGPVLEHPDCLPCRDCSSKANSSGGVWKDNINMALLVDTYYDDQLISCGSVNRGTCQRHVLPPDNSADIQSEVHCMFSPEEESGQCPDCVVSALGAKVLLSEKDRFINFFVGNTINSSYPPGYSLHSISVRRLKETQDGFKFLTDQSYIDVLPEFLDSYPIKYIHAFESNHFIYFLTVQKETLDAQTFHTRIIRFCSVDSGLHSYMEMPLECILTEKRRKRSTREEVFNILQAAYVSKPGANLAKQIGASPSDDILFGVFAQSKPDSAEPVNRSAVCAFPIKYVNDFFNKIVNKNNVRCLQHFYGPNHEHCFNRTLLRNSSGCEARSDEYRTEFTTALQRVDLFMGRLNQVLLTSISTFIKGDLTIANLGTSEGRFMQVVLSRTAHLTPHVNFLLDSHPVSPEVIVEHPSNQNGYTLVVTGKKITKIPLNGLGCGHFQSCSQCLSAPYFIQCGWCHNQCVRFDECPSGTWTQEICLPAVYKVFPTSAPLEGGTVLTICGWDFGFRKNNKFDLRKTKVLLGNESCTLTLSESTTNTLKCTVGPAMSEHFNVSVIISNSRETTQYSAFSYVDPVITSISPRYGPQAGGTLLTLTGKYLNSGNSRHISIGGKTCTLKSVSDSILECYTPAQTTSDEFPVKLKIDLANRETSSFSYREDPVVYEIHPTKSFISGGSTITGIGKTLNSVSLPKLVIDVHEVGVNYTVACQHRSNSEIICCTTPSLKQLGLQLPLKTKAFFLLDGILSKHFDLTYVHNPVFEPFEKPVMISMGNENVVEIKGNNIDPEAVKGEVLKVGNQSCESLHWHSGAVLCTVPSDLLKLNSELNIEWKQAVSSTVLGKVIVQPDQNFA
TEST: ELISA, MET ECD in solid phase, mAb 0-20 nM
REPORTED PROPERTY: pEC50
// field semantics: pEC50 = negative decimal log of concentration (mol/L)

Input line: GET /values?readout=pEC50&item= 72F8 chimeric llama-human IgG1 mAb (antibody, V domains shown, llama VH on human IgG1 CH1-CH2-CH3, llama VL on human lambda CL) VH: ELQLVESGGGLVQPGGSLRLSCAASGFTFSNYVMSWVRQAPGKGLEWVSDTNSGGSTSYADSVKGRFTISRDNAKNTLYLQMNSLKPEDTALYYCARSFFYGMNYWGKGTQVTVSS VL: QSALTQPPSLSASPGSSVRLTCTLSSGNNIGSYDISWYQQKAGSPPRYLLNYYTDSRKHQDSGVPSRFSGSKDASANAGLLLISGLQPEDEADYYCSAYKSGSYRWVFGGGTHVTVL
Output line: 10.32

Input line: GET /values?readout=pEC50&item= 71G3 chimeric llama-human IgG1 mAb (antibody, V domains shown, llama VH on human IgG1 CH1-CH2-CH3, llama VL on human lambda CL) VH: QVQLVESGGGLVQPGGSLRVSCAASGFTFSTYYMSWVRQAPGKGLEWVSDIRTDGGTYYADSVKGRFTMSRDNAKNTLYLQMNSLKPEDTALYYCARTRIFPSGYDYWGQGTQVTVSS VL: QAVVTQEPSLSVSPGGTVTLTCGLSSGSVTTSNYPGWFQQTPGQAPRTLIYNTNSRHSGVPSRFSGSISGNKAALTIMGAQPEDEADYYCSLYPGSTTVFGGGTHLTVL
Output line: 10.24

Input line: GET /values?readout=pEC50&item= 71A3 chimeric llama-human IgG1 mAb (antibody, V domains shown, llama VH on human IgG1 CH1-CH2-CH3, llama VL on human lambda CL) VH: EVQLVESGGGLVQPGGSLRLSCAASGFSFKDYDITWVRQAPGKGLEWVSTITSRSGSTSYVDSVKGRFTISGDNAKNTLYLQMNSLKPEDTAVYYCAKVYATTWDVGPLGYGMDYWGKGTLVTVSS VL: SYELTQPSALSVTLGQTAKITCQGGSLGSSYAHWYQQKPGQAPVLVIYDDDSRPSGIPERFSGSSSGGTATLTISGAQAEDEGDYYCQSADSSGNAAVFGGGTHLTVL
Output line: 9.75
